target: TXA2 receptors (Homo sapiens, UniProt P21731); construct: to Washed Human Platelets; endogenous in cells; test: Human platelet binding assay: inhibition of [^125 I]PTA-OH binding to washed human platelets; details: [^125 I]PTA-OH as receptor ligand, 50% inhibition of specific binding
# IC50 values compiled below
assay-endpoint: IC50

smiles_structure=O=C(O)CCCCCCNS(=O)(=O)c1ccc(Cl)cc1 experimental_result="0.27 µM"
smiles_structure=O=C(O)CCCCCCCCNS(=O)(=O)c1ccccc1 experimental_result="0.28 µM"
smiles_structure=O=C(O)CCCC#CCNS(=O)(=O)c1ccc(Cl)cc1 experimental_result="5.4 µM"
smiles_structure=Cc1ccc(S(=O)(=O)NCCCCCCCC(=O)O)cc1 experimental_result="0.075 µM"
smiles_structure=O=C(O)CCCCCCCCCCNS(=O)(=O)c1cccc(Cl)c1 experimental_result="1.9 µM"
smiles_structure=CC(C)(CCCCCCNS(=O)(=O)c1ccc(Cl)cc1)C(=O)O experimental_result="0.15 µM"
smiles_structure=O=C(O)CCC/C=C\CNS(=O)(=O)c1ccc(Cl)cc1 experimental_result="1.6 µM"
smiles_structure=CC(C)(CCCCCNS(=O)(=O)c1ccc(Cl)cc1)C(=O)O experimental_result="0.33 µM"
smiles_structure=O=C(O)CCCCCNS(=O)(=O)c1ccccc1 experimental_result="61 µM"

###

Target: TXA2 receptors (Homo sapiens, UniProt P21731)
Construct: to Washed Human Platelets; endogenous in cells; host or cells: washed human platelets
Sequence (P21731 1-343): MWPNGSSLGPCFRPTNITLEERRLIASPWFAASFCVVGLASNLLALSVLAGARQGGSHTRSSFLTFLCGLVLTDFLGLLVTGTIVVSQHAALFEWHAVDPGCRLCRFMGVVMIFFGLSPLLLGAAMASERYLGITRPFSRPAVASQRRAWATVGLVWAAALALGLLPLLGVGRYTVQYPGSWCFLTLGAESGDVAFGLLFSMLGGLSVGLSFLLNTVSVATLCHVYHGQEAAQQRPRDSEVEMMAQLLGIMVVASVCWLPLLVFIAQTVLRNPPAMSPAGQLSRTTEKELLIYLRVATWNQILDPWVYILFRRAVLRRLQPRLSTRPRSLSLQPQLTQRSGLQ
Experiment: Human platelet binding assay: inhibition of [^125 I]PTA-OH binding to washed human platelets
Conditions: [^125 I]PTA-OH as receptor ligand, 50% inhibition of specific binding
pIC50: −log10 of the molar value.
assay-endpoint: pIC50

smiles_structure=O=C(O)CCCCCCCNS(=O)(=O)c1ccccc1 experimental_result=6.54
smiles_structure=COc1ccc(S(=O)(=O)NCCCCCCCC(=O)O)cc1 experimental_result=6.52
smiles_structure=O=C(O)CCCCCCNS(=O)(=O)c1ccccc1 experimental_result=5.64
smiles_structure=O=C(O)CCCCCCCCNS(=O)(=O)c1ccc(Br)cc1 experimental_result=7.40
smiles_structure=O=C(O)CCCCCCCNS(=O)(=O)c1cccc(Cl)c1 experimental_result=6.80
smiles_structure=O=C(O)CCCCCCCCNS(=O)(=O)c1ccc(Cl)cc1 experimental_result=7.74
smiles_structure=O=C(O)CCCCCCCNS(=O)(=O)c1ccc(F)cc1 experimental_result=6.66
smiles_structure=O=C(O)CCCCCCCNS(=O)(=O)c1cc(Cl)sc1Cl experimental_result=6.19
smiles_structure=O=C(O)CCCCCCCNS(=O)(=O)c1ccc(Br)cc1 experimental_result=7.70
smiles_structure=O=C(O)CCCCCCCCCCCNS(=O)(=O)c1ccc(Cl)cc1 experimental_result=5.15
smiles_structure=O=C(O)CCCCCCCCNS(=O)(=O)c1cccc(Cl)c1 experimental_result=6.60
smiles_structure=CC(C)(CCCCCCCCNS(=O)(=O)c1ccc(Cl)cc1)C(=O)O experimental_result=6.33
smiles_structure=CC(C)(CCCCCCCNS(=O)(=O)c1ccc(Cl)cc1)C(=O)O experimental_result=6.44
smiles_structure=O=C(O)CCCCCCCNS(=O)(=O)c1ccc([N+](=O)[O-])cc1 experimental_result=6.96
smiles_structure=CC(C)(CCCCCNS(=O)(=O)c1ccc(Cl)cc1)CC(=O)O experimental_result=6.22
smiles_structure=O=C(O)CCCCCCCNS(=O)(=O)c1ccc(Cl)s1 experimental_result=7.40

All values here come from patent US4997847A.
